# Tested on: PPARg:RXRa IVT, anti-PPARg (NR concentration 270 nM, RXRa partner concentration 90 nM)
# method: PBM binding z-score (relative to random genomic background probes); higher = stronger binding; sequences stand for … in GC…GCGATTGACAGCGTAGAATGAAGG
Entry flag: 1 if PBM binding z-score reaches 2; 0 if it does not.

q: # bool: PBM binding z-score of CCTACTGAGCCAAAAAGGTCATTGATGCCGATAA >= 2
a: 0

q: # bool: PBM binding z-score of AGCATGAGGTTATACGTAGATCAGGGAAGAAAGT >= 2
a: 0

q: # bool: PBM binding z-score of TCTTGTAGATCAACAGGAGATTAAGAAAGATCGA >= 2
a: 0

q: # bool: PBM binding z-score of TAGCCTAGGTCCTGCGGGCCAGTATAGTGTCGGC >= 2
a: 0

q: # bool: PBM binding z-score of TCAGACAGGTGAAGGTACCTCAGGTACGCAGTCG >= 2
a: 0

q: # bool: PBM binding z-score of AGAATGAGGTTATTAAGATCAGGGCATTGCGGTC >= 2
a: 1

q: # bool: PBM binding z-score of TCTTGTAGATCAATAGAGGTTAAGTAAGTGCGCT >= 2
a: 0

q: # bool: PBM binding z-score of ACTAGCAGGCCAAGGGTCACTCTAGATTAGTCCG >= 2
a: 1

q: # bool: PBM binding z-score of CCTACTGGGCCAAAGGTCATTCATTCCAATGCTC >= 2
a: 1

q: # bool: PBM binding z-score of CGAACTAGGTCATTGACAAGACAGTGAATAGTAA >= 2
a: 1

q: # bool: PBM binding z-score of CGAACTATGTCAGAACAGGACAGTGAAGGATGAT >= 2
a: 0

q: # bool: PBM binding z-score of ATCGAAAGGGCGAGGTGAGTATAGAGAAAGGGAA >= 2
a: 0

q: # bool: PBM binding z-score of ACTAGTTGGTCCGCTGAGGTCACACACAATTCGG >= 2
a: 0

q: # bool: PBM binding z-score of ACTATTAGTTGACTTAGGCCAACCGATACGACGC >= 2
a: 0

q: # bool: PBM binding z-score of CAAACTAGGTCACAGAGGCCAAAGTCCGTGCGTA >= 2
a: 1

q: # bool: PBM binding z-score of ACTATTAGTTGAGACGAGGGCAAACGATAGGTTG >= 2
a: 0

q: # bool: PBM binding z-score of CGAACTAGGTCATCCAGAACAGTGAATACATTGA >= 2
a: 1

q: # bool: PBM binding z-score of GCATATAGGTAATACAAGGTGAAAGTTCGATTGT >= 2
a: 1

q: # bool: PBM binding z-score of CCTTACGGGGCACTCCAGGTTATAGCATCGGAGT >= 2
a: 0

q: # bool: PBM binding z-score of AGAATGAGGTTATTAAGATCAGGGGATTGCGGTC >= 2
a: 1

---

This listing pairs sequences with measured PBM binding z-score.
# Test system: LXRa homodimer (NR concentration 270 nM)
# method: PBM binding z-score (relative to random genomic background probes); higher = stronger binding; sequences stand for … in GC…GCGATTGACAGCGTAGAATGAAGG
Form rule: numeric answer, no unit written next to it.

Sample answers from the record:
sequenceText: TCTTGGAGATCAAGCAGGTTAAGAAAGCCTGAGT
PBM binding z-score: -0.249
//
sequenceText: ATATGTAGGTTAGCCGGGGTCATTCAGACTAGGC
PBM binding z-score: 3.14
//
sequenceText: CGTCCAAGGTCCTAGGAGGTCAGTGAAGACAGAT
PBM binding z-score: 0.256

// switching to the query sequence
PBM binding z-score reported for this sequence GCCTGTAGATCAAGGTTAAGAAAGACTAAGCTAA : -0.269

Reference source for all entries: the supplement of paper PMC6555819
